- Target entity: UniProt P36888
- Sequence (P36888 whole entry): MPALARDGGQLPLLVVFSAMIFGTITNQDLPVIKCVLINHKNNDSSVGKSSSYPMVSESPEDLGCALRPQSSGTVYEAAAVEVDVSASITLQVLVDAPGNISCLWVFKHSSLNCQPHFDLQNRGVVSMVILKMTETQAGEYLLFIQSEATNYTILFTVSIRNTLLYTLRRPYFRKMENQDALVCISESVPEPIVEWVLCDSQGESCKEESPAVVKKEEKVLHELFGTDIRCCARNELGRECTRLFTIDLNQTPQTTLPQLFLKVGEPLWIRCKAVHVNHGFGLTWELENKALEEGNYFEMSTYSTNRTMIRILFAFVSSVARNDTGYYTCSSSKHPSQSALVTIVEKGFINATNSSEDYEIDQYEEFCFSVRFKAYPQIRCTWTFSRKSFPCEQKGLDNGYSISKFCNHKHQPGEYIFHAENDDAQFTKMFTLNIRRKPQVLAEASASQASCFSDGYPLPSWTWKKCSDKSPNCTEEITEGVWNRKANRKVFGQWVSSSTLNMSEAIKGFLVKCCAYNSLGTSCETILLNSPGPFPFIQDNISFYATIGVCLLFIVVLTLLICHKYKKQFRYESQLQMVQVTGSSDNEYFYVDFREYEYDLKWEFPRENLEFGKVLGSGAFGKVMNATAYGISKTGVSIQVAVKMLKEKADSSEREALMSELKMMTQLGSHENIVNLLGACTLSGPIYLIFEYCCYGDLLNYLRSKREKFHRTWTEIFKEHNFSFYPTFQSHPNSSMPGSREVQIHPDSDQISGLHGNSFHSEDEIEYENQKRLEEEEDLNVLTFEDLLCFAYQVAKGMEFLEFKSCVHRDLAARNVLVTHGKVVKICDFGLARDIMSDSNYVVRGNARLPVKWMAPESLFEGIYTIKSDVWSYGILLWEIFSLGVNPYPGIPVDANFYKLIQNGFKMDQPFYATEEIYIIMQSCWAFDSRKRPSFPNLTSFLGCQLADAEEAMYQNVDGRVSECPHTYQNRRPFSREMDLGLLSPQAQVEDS

| Chemical structure | Target entity | IC50 / nM |
| --- | --- | --- |
| COc1cc2c(Oc3ccc(N/C=C4\C(=O)NC(=O)N(c5ccc(C)cc5)C4=O)cc3F)ccnc2cc1OCCCN1CCCC1 | UniProt P36888 | 496 |

###

- Target entity: Vascular endothelial growth factor receptor 2 (Homo sapiens)
- Sequence (P35968 whole entry): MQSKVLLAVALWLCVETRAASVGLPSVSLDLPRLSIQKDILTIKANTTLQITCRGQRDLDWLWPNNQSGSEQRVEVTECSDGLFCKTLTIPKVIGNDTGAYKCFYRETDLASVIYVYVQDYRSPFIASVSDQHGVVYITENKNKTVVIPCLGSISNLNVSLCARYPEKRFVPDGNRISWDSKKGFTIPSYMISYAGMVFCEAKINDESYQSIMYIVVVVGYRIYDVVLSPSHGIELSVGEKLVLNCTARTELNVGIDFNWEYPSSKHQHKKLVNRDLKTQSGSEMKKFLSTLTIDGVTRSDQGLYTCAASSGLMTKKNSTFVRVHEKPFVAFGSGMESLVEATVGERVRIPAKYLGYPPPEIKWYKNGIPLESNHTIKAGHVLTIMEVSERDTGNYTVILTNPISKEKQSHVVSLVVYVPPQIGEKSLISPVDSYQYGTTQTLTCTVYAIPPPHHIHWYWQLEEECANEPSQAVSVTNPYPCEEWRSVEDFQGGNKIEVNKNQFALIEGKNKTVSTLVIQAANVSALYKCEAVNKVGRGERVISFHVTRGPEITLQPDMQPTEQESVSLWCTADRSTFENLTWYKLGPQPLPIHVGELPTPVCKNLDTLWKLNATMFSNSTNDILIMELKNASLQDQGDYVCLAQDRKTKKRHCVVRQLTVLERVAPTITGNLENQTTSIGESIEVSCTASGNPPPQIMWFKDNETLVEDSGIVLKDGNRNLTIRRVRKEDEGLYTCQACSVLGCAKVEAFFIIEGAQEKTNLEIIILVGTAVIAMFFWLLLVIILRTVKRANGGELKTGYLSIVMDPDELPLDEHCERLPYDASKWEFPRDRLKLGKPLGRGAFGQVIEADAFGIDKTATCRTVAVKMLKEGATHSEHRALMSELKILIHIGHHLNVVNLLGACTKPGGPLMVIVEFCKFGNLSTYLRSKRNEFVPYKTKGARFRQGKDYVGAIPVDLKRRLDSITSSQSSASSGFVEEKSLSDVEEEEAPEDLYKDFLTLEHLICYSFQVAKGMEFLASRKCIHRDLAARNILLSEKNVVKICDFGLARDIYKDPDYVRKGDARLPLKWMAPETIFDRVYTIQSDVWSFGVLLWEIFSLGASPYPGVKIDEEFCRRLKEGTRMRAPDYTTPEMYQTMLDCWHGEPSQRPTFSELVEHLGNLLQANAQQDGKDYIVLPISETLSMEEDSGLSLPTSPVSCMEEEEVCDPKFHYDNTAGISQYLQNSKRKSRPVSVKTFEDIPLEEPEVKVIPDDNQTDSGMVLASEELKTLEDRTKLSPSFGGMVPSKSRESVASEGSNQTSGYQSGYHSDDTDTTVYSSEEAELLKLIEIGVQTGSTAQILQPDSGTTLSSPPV
Value kind: IC50 (nM)

| Chemical structure | Target entity | Number |
| --- | --- | --- |
| COc1cc2c(Oc3ccc(N/C=C4\C(=O)NC(=O)N(c5ccc(C)cc5)C4=O)cc3F)ccnc2cc1OCCCN1CCCC1 | Vascular endothelial growth factor receptor 2 (Homo sapiens) | 384 |

###

- Target entity: Mast/stem cell growth factor receptor Kit (Homo sapiens, UniProt P10721)
- Sequence (P10721 whole entry): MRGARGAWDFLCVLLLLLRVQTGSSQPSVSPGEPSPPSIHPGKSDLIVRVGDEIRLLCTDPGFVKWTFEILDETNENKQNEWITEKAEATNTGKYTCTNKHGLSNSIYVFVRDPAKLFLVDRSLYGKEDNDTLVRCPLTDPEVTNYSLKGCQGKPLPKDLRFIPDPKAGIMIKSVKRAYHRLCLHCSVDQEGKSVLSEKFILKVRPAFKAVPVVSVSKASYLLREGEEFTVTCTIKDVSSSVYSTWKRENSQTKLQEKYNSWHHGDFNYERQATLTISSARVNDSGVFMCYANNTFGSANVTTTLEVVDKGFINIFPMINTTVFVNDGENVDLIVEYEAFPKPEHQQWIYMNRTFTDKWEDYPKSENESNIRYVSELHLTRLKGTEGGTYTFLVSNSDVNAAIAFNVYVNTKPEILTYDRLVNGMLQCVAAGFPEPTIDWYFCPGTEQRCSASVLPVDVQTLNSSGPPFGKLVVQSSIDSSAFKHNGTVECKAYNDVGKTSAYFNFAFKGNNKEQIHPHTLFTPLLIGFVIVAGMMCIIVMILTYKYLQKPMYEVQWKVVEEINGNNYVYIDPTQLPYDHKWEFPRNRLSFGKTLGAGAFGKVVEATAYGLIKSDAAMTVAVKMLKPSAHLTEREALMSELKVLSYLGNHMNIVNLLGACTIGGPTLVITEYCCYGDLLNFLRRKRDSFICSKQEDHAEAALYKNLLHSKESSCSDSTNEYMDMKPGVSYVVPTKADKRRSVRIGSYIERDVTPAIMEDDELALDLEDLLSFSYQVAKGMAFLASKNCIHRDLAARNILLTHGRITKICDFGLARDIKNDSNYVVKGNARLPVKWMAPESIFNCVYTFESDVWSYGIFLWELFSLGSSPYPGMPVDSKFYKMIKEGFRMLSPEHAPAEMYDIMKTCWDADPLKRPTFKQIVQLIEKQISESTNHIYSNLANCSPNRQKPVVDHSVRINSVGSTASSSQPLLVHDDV
- Test method notes: Inhibition of c-Kit (unknown origin) using poly (Glu, Tyr) 4:1 after 30 mins by HTRF assay

| Chemical structure | IC50 [µM] |
| --- | --- |
| COc1cc2c(Oc3ccc(N/C=C4\C(=O)NC(=O)N(c5ccc(C)cc5)C4=O)cc3F)ccnc2cc1OCCCN1CCCC1 | 0.652 |

###

- Target entity: Hepatocyte growth factor receptor (Homo sapiens)
- Sequence (P08581 whole entry): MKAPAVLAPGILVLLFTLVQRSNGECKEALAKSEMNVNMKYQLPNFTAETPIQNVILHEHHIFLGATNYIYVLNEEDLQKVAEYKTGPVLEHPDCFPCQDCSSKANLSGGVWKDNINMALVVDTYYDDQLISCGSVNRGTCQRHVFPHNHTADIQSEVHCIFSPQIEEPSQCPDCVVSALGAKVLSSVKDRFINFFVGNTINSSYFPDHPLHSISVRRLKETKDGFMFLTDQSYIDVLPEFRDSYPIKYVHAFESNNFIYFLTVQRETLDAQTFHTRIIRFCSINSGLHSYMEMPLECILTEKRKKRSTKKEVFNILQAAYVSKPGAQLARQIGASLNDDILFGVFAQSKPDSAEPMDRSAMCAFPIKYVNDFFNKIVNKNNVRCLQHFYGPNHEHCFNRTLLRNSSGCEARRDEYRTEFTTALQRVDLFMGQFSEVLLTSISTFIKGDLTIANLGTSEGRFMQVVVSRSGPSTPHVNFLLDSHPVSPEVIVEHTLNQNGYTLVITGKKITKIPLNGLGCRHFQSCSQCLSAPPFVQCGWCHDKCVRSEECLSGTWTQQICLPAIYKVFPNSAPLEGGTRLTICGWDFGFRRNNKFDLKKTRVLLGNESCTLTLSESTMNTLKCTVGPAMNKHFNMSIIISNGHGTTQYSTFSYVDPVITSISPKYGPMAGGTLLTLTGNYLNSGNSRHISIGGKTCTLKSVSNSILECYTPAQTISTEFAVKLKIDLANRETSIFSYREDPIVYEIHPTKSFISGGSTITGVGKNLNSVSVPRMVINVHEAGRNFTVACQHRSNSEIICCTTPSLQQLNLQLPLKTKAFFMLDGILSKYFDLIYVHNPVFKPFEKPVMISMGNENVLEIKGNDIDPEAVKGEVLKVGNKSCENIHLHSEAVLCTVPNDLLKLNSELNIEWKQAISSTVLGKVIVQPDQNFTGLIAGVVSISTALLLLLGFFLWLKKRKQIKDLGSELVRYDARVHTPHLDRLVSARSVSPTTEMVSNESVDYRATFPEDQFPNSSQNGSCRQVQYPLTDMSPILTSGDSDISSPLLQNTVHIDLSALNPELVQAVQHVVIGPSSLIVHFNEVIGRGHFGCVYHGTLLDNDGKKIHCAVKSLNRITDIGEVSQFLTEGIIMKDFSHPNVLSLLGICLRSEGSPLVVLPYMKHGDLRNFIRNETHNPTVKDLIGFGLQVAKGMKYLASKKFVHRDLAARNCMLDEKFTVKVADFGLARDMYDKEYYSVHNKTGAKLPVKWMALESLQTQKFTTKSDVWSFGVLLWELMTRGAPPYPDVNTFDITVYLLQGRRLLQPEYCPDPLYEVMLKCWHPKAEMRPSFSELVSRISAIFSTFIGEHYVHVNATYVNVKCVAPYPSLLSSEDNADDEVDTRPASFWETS
pIC50: −log10 of the molar value.
Is pIC50 at least 8? Then fulfilled. If not, not fulfilled.

| Chemical structure | Class label |
| --- | --- |
| COc1cc2c(Oc3ccc(N/C=C4\C(=O)NC(=O)N(c5ccccc5)C4=O)cc3F)ccnc2cc1OCCCN1CCCCC1 | fulfilled |
| COc1cc2c(Oc3ccc(N/C=C4\C(=O)NC(=O)N(c5ccccc5C(F)(F)F)C4=O)cc3F)ccnc2cc1OCCCN1CCCCC1 | not fulfilled |
| COc1cc2c(Oc3ccc(N/C=C4\C(=O)NC(=O)N(c5ccc(F)c(Cl)c5)C4=O)cc3F)ccnc2cc1OCCCN1CCOCC1 | fulfilled |
| COc1cc2c(Oc3ccc(N/C=C4\C(=O)NC(=O)N(c5ccc(F)c(Cl)c5)C4=O)cc3F)ccnc2cc1OCCCN1CCN(C)CC1 | fulfilled |
| COc1cc2c(Oc3ccc(N/C=C4\C(=O)NC(=O)N(c5ccc(C)cc5)C4=O)cc3F)ccnc2cc1OCCCN1CCOCC1 | fulfilled |
| COc1cc2c(Oc3ccc(N/C=C4\C(=O)NC(=O)N(c5c(C)cccc5C)C4=O)cc3F)ccnc2cc1OCCCN1CCN(C)CC1 | fulfilled |
| COc1cc2c(Oc3ccc(N/C=C4\C(=O)NC(=O)N(c5ccccc5)C4=O)cc3F)ccnc2cc1OCCCN1CCN(C)CC1 | fulfilled |
| COc1cc2c(Oc3ccc(N/C=C4\C(=O)NC(=O)N(c5ccccc5C(F)(F)F)C4=O)cc3F)ccnc2cc1OCCCN1CCOCC1 | not fulfilled |
| COc1cc2c(Oc3ccc(N/C=C4\C(=O)NC(=O)N(c5ccc(C)cc5)C4=O)cc3F)ccnc2cc1OCCCN1CCCCC1 | fulfilled |
| COc1cc(N2C(=O)NC(=O)/C(=C\Nc3ccc(Oc4ccnc5cc(OCCCN6CCN(C)CC6)c(OC)cc45)c(F)c3)C2=O)c(OC)cc1Cl | not fulfilled |
| COc1cc2c(Oc3ccc(N/C=C4\C(=O)NC(=O)N(c5ccc(F)cc5)C4=O)cc3F)ccnc2cc1OCCCN1CCCC1 | fulfilled |
| COc1cc2c(Oc3ccc(N/C=C4\C(=O)NC(=O)N(c5ccccc5)C4=O)cc3F)ccnc2cc1OCCCN1CCCC1 | fulfilled |
| COc1cc2c(Oc3ccc(N/C=C4\C(=O)NC(=O)N(c5c(C)cccc5C)C4=O)cc3F)ccnc2cc1OCCCN1CCCC1 | fulfilled |
| COc1cc2c(Oc3ccc(N/C=C4\C(=O)NC(=O)N(c5ccc(F)cc5)C4=O)cc3F)ccnc2cc1OCCCN1CCC(C)CC1 | fulfilled |
| COc1cc2c(Oc3ccc(N/C=C4\C(=O)NC(=O)N(c5ccccc5C(F)(F)F)C4=O)cc3F)ccnc2cc1OCCCN1CCC(C)CC1 | not fulfilled |
| COc1cc2c(Oc3ccc(N/C=C4\C(=O)NC(=O)N(c5ccc(F)c(Cl)c5)C4=O)cc3F)ccnc2cc1OCCCN1CCC(C)CC1 | fulfilled |
| COc1cc(N2C(=O)NC(=O)/C(=C\Nc3ccc(Oc4ccnc5cc(OCCCN6CCOCC6)c(OC)cc45)c(F)c3)C2=O)c(OC)cc1Cl | not fulfilled |
| COc1cc2c(Oc3ccc(N/C=C4\C(=O)NC(=O)N(c5c(C)cccc5C)C4=O)cc3F)ccnc2cc1OCCCN1CCCCC1 | fulfilled |
| COc1cc2c(Oc3ccc(N/C=C4\C(=O)NC(=O)N(c5c(C)cccc5C)C4=O)cc3F)ccnc2cc1OCCCN1CCC(C)CC1 | fulfilled |
| COc1cc2c(Oc3ccc(N/C=C4\C(=O)NC(=O)N(c5ccc(F)c(Cl)c5)C4=O)cc3F)ccnc2cc1OCCCN1CCCCC1 | fulfilled |
| COc1cc2c(Oc3ccc(N/C=C4\C(=O)NC(=O)N(c5ccc(F)c(Cl)c5)C4=O)cc3F)ccnc2cc1OCCCN1CCCC1 | fulfilled |
| COc1cc2c(Oc3ccc(N/C=C4\C(=O)NC(=O)N(c5ccccc5)C4=O)cc3F)ccnc2cc1OCCCN1CCOCC1 | fulfilled |
| COc1cc2c(Oc3ccc(N/C=C4\C(=O)NC(=O)N(c5ccc(C)cc5)C4=O)cc3F)ccnc2cc1OCCCN1CCN(C)CC1 | fulfilled |

###

// IC50 collected for Hepatocyte growth factor receptor (Homo sapiens)
Value kind: IC50

| Chemical structure | Target entity | Result |
| --- | --- | --- |
| COc1cc2c(Oc3ccc(N/C=C4\C(=O)NC(=O)N(c5ccc(C)cc5)C4=O)cc3F)ccnc2cc1OCCCN1CCCC1 | Hepatocyte growth factor receptor (Homo sapiens) | 1.15 nM |
| COc1cc2c(Oc3ccc(N/C=C4\C(=O)NC(=O)N(c5ccc(C)cc5)C4=O)cc3F)ccnc2cc1OCCCN1CCC(C)CC1 | Hepatocyte growth factor receptor (Homo sapiens) | 1.64 nM |
| COc1cc2c(Oc3ccc(N/C=C4\C(=O)NC(=O)N(c5c(C)cccc5C)C4=O)cc3F)ccnc2cc1OCCCN1CCOCC1 | Hepatocyte growth factor receptor (Homo sapiens) | 3.03 nM |
| COc1cc(N2C(=O)NC(=O)/C(=C\Nc3ccc(Oc4ccnc5cc(OCCCN6CCCCC6)c(OC)cc45)c(F)c3)C2=O)c(OC)cc1Cl | Hepatocyte growth factor receptor (Homo sapiens) | 27.9 nM |

###

- Test method notes: Cytotoxicity against human U87MG cells after 72 hrs by MTT assay
- Assay type: functional, cell-based, U-87MG ATCC
- Stated conditions: U-87 MG
pIC50: −log10 of the molar value.
pIC50 overview

| Chemical structure | pIC50 |
| --- | --- |
| COc1cc2c(Oc3ccc(N/C=C4\C(=O)NC(=O)N(c5ccc(C)cc5)C4=O)cc3F)ccnc2cc1OCCCN1CCCC1 | 6.19 |
| COc1cc2c(Oc3ccc(N/C=C4\C(=O)NC(=O)N(c5ccc(C)cc5)C4=O)cc3F)ccnc2cc1OCCCN1CCCCC1 | 5.82 |
| COc1cc2c(Oc3ccc(N/C=C4\C(=O)NC(=O)N(c5c(C)cccc5C)C4=O)cc3F)ccnc2cc1OCCCN1CCCCC1 | 5.92 |
| COc1cc2c(Oc3ccc(N/C=C4\C(=O)NC(=O)N(c5ccc(F)c(Cl)c5)C4=O)cc3F)ccnc2cc1OCCCN1CCCC1 | 6.17 |
| COc1cc(N2C(=O)NC(=O)/C(=C\Nc3ccc(Oc4ccnc5cc(OCCCN6CCC(C)CC6)c(OC)cc45)c(F)c3)C2=O)c(OC)cc1Cl | 5.47 |
| COc1cc2c(Oc3ccc(N/C=C4\C(=O)NC(=O)N(c5ccccc5)C4=O)cc3F)ccnc2cc1OCCCN1CCCCC1 | 5.89 |
| COc1cc2c(Oc3ccc(N/C=C4\C(=O)NC(=O)N(c5ccc(C)cc5)C4=O)cc3F)ccnc2cc1OCCCN1CCOCC1 | 5.07 |
| COc1cc2c(Oc3ccc(N/C=C4\C(=O)NC(=O)N(c5ccc(F)c(Cl)c5)C4=O)cc3F)ccnc2cc1OCCCN1CCN(C)CC1 | 6.12 |
| COc1cc(N2C(=O)NC(=O)/C(=C\Nc3ccc(Oc4ccnc5cc(OCCCN6CCCC6)c(OC)cc45)c(F)c3)C2=O)c(OC)cc1Cl | 5.55 |
| COc1cc2c(Oc3ccc(N/C=C4\C(=O)NC(=O)N(c5c(C)cccc5C)C4=O)cc3F)ccnc2cc1OCCCN1CCCC1 | 5.91 |
| COc1cc2c(Oc3ccc(N/C=C4\C(=O)NC(=O)N(c5ccc(C)cc5)C4=O)cc3F)ccnc2cc1OCCCN1CCC(C)CC1 | 6.04 |
| COc1cc2c(Oc3ccc(N/C=C4\C(=O)NC(=O)N(c5ccc(C)cc5)C4=O)cc3F)ccnc2cc1OCCCN1CCN(C)CC1 | 5.49 |
| COc1cc2c(Oc3ccc(N/C=C4\C(=O)NC(=O)N(c5ccc(F)cc5)C4=O)cc3F)ccnc2cc1OCCCN1CCC(C)CC1 | 5.49 |
| COc1cc2c(Oc3ccc(N/C=C4\C(=O)NC(=O)N(c5ccc(F)cc5F)C4=O)cc3F)ccnc2cc1OCCCN1CCN(C)CC1 | 5.80 |
| COc1cc2c(Oc3ccc(N/C=C4\C(=O)NC(=O)N(c5ccccc5)C4=O)cc3F)ccnc2cc1OCCCN1CCC(C)CC1 | 5.85 |

Attribution: ChEMBL document CHEMBL3112515
